From: the supplement of paper PMC10567573

B1: HDAC6 (parent)
chain: QEGLLDRCVSFQARFAEKEELMLV

Variants of: B1
Assay: protein stability index of a GFP-peptide fusion (GPS, HEK-293T) (PSI 1-6); higher = more stable;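 further: lentivirally expressed fusions sorted by FACS into six bins by GFP to DsRed ratio, PSI derived from sequencing read proportions per bin multiplied by bin number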
Conditions: c terminus: a fixed tail appended
READOUT: protein stability index
Reply with just the number.

Examples from the recorded data:
| MUTATION ANNOTATION | EXPERIMENTAL RESULT |
| --- | --- |
| E2C | 2 |
| V9A | 1.71 |

Lab note: next variant to report on.
Form: variant = C8T ; protein stability index = 2.27
